Give CC50 for every item shown.
Assay: Cytotoxicity against MDCK cells
Format: cell-based, Canis lupus familiaris
Settings: dog
Write the number in µM without appending the unit.

What value of CC50 has been reported for the following compound? O=[N+]([O-])C1=NNc2ncnn2C1O (stereo unspecified)
87

What value of CC50 has been reported for the following compound? O=[N+]([O-])C1=CNc2nc(C(F)(F)F)nn2C1c1c(O)cc(O)cc1O (stereo unspecified)
838

What value of CC50 has been reported for the following compound? `O=[N+]([O-])C1=CNc2nc(-c3ccco3)nn2C1`
108

What value of CC50 has been reported for the following compound? CSc1nc2n(n1)C(O)C([N+](=O)[O-])=NN2 (stereo unspecified)
99

What value of CC50 has been reported for the following compound? O=[N+]([O-])C1=CNc2nc(C(F)(F)F)nn2C1c1ccc(O)c(O)c1O (stereo unspecified)
373

What value of CC50 has been reported for the following compound? CSc1nc2n(n1)C(c1ccc(O)c(O)c1)C([N+](=O)[O-])=NN2 (stereo unspecified)
362

What value of CC50 has been reported for the following compound? O=[N+]([O-])C1=CNc2nc(-c3ccco3)nn2C1c1ccc(O)c(O)c1O (stereo unspecified)
317

What value of CC50 has been reported for the following compound? O=[N+]([O-])C1=CNc2ncnn2C1O (stereo unspecified)
123

What value of CC50 has been reported for the following compound? O=[N+]([O-])C1=CNc2nc(-c3ccco3)nn2C1c1c(O)cc(O)cc1O (stereo unspecified)
280

What value of CC50 has been reported for the following compound? CSc1nc2n(n1)C(c1ccc(O)cc1O)C([N+](=O)[O-])=NN2 (stereo unspecified)
201

What value of CC50 has been reported for the following compound? O=[N+]([O-])C1=NNc2ncnn2C1c1c(O)cc(O)cc1O (stereo unspecified)
119

What value of CC50 has been reported for the following compound? O=[N+]([O-])C1=NNc2nc(C(F)(F)F)nn2C1c1ccc(O)c(O)c1 (stereo unspecified)
183

What value of CC50 has been reported for the following compound? O=[N+]([O-])C1=CNc2nc(C(F)(F)F)nn2C1O (stereo unspecified)
33

What value of CC50 has been reported for the following compound? O=[N+]([O-])C1=NNc2nc(C(F)(F)F)nn2C1c1ccc(O)cc1O (stereo unspecified)
108

What value of CC50 has been reported for the following compound? O=[N+]([O-])C1=CNc2nc(C(F)(F)F)nn2C1c1ccc(O)cc1O (stereo unspecified)
258

What value of CC50 has been reported for the following compound? O=[N+]([O-])C1=NNc2nc(C(F)(F)F)nn2C1O (stereo unspecified)
40

What value of CC50 has been reported for the following compound? O=[N+]([O-])C1=CNc2nc(C(F)(F)F)nn2C1c1ccc(O)c(O)c1 (stereo unspecified)
1200

What value of CC50 has been reported for the following compound? O=[N+]([O-])C1=CNc2ncnn2C1c1ccc(O)c(O)c1 (stereo unspecified)
368

* * *

Test system: M2 proton channel of Influenza A virus
Assay: Selectivity index, ratio of CC50 for MDCK cells to IC50 for M2 proton channel in Influenza A virus (A/Puerto Rico/8/34(H1N1) ) infected in MDCK cells assessed as inhibition of viral infection
Type: toxicity, cell-based
Conditions: dog, read-out: Ratio CC50/IC50
satisfied if selectivity ratio is below 4. not satisfied if not; exact matches included in not satisfied.

Strictly below 4 in selectivity ratio? O=[N+]([O-])C1=CNc2nc(C(F)(F)F)nn2C1O (centres undefined)
satisfied

Strictly below 4 in selectivity ratio? O=[N+]([O-])C1=NNc2ncnn2C1c1ccc(O)c(O)c1O (centres undefined)
satisfied

Strictly below 4 in selectivity ratio? CSc1nc2n(n1)C(c1ccc(O)cc1O)C([N+](=O)[O-])=NN2 (centres undefined)
not satisfied

Strictly below 4 in selectivity ratio? O=[N+]([O-])C1=NNc2nc(C(F)(F)F)nn2C1c1ccc(O)cc1O (centres undefined)
satisfied

Strictly below 4 in selectivity ratio? O=[N+]([O-])C1=NNc2nc(C(F)(F)F)nn2C1c1ccc(O)c(O)c1 (centres undefined)
satisfied

Strictly below 4 in selectivity ratio? O=[N+]([O-])C1=CNc2nc(C(F)(F)F)nn2C1c1c(O)cc(O)cc1O (centres undefined)
not satisfied

* * *

Test: Inhibition of M2 proton channel in Influenza A virus (A/Puerto Rico/8/34(H1N1)) infected in MDCK cells assessed as inhibition of viral infection
Type: cell-based, Influenza A virus (A/Puerto Rico/8/1934(H1N1))
Give log10(IC50) for every item shown.
// do not treat as linear: log10 of IC50, unit µM

What value of log10(IC50) has been reported for the following compound? O=[N+]([O-])C1=CNc2ncnn2C1c1ccc(O)cc1O (stereo unspecified)
2.22

What value of log10(IC50) has been reported for the following compound? O=[N+]([O-])C1=CNc2nc(-c3ccco3)nn2C1c1c(O)cc(O)cc1O (stereo unspecified)
1.85

What value of log10(IC50) has been reported for the following compound? O=[N+]([O-])C1=NNc2nc(C(F)(F)F)nn2C1c1ccc(O)c(O)c1O (stereo unspecified)
1.00

What value of log10(IC50) has been reported for the following compound? O=[N+]([O-])C1=NNc2ncnn2C1c1ccc(O)c(O)c1O (stereo unspecified)
1.93

What value of log10(IC50) has been reported for the following compound? O=[N+]([O-])C1=NNc2ncnn2C1c1c(O)cc(O)cc1O (stereo unspecified)
1.41

* * *

Test: Cytotoxicity against MDCK cells
Type: cell-based, Canis lupus familiaris
Conditions: dog
Give CC50 for every item shown.

What value of CC50 has been reported for the following compound? O=[N+]([O-])C1=CNc2ncnn2C1c1ccc(O)cc1O (stereo not drawn)
> 1090 µM

What value of CC50 has been reported for the following compound? O=[N+]([O-])C1=NNc2ncnn2C1c1ccc(O)c(O)c1 (stereo not drawn)
> 1640 µM

What value of CC50 has been reported for the following compound? O=[N+]([O-])C1=CNc2ncnn2C1c1c(O)cc(O)cc1O (stereo not drawn)
> 1030 µM

* * *

Tested on: M2 proton channel of Influenza A virus
Experiment: Selectivity index, ratio of CC50 for MDCK cells to IC50 for M2 proton channel in Influenza A virus (A/Puerto Rico/8/34(H1N1) ) infected in MDCK cells assessed as inhibition of viral infection
Type: toxicity, cell-based
Conditions: dog, read-out: Ratio CC50/IC50
Give selectivity ratio for every item shown.
Enter the number alone.

What value of selectivity ratio has been reported for the following compound? O=[N+]([O-])C1=CNc2ncnn2C1O (stereo not drawn)
4

What value of selectivity ratio has been reported for the following compound? O=[N+]([O-])C1=NNc2nc(C(F)(F)F)nn2C1O (stereo not drawn)
4

What value of selectivity ratio has been reported for the following compound? O=[N+]([O-])C1=CNc2nc(-c3ccco3)nn2C1c1c(O)cc(O)cc1O (stereo not drawn)
4
